# TARGET ENTITY: Glutamate receptor ionotropic, NMDA 2B (Rattus norvegicus, UniProt Q00960)
# Sequence (Q00960 whole entry): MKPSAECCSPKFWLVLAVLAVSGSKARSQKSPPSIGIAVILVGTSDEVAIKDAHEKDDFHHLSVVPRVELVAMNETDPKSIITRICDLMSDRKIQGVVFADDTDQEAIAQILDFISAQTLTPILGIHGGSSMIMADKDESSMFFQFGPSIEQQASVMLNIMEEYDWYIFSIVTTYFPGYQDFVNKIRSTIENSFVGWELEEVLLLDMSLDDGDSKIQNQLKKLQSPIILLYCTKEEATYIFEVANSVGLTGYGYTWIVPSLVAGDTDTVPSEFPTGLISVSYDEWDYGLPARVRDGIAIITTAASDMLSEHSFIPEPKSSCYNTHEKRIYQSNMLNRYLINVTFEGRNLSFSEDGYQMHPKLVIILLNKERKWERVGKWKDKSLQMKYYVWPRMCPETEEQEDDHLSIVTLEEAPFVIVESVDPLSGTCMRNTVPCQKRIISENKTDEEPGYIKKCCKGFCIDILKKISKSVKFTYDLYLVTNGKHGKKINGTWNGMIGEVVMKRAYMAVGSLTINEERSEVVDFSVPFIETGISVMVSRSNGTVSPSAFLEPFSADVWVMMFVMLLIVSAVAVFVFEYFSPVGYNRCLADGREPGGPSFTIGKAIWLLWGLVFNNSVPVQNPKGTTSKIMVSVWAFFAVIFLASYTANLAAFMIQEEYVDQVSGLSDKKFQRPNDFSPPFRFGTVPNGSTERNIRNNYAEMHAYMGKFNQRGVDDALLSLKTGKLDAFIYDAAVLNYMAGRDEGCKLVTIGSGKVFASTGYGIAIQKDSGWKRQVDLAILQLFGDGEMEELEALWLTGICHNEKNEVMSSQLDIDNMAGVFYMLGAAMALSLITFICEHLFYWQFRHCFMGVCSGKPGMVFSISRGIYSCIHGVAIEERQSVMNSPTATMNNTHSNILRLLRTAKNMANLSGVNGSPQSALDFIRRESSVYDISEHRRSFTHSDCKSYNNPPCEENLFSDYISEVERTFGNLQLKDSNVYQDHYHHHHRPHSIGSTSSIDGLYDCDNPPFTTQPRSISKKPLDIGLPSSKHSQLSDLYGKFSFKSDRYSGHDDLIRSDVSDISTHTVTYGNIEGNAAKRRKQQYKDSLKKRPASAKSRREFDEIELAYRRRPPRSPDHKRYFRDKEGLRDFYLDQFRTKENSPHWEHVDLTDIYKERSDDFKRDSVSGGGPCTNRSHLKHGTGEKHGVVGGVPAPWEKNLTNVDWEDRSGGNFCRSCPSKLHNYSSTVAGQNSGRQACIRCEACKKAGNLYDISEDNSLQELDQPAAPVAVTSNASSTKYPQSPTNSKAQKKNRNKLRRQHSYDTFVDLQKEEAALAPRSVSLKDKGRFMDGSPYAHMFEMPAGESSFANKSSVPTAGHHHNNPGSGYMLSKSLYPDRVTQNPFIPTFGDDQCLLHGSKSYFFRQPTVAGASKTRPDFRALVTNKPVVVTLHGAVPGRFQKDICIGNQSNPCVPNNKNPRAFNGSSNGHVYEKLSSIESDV
# ASSAY INFO: Binding affinity to NMDAR NR2B in Sprague-Dawley rat brain hippocampus
# Assay type: tissue-based
Reported pKd values are given for each entry in this list.
Reminder that pKd means the negative base-10 logarithm of the concentration expressed in mol/L.

[
  {
    "COMPOUND": "Cc1ccc(COC(=O)N2CC[C@H](CNc3ncccn3)[C@H]([18F])C2)cc1 (racemic)",
    "pKd": 8.04
  }
]

Query: pKd; subject: Cc1ccc(COC(=O)N2CC[C@@H](CNc3ncccn3)[C@H]([18F])C2)cc1 (racemic)
8.15

----------
# TARGET ENTITY: Glutamate receptor ionotropic, NMDA 2B (Rattus norvegicus)
# ASSAY INFO: Binding affinity to NMDAR NR2B in Sprague-Dawley rat brain thalamus
# Format: tissue-based
EXPERIMENTAL ENDPOINT: pKd
On this scale, pKd is minus log10 of a concentration expressed in M (mol/L).

[
  {
    "COMPOUND": "Cc1ccc(COC(=O)N2CC[C@@H](CNc3ncccn3)[C@H]([18F])C2)cc1 (racemic)",
    "pKd": 8.27
  }
]

Then there is this compound:
Please give the measured pKd for this compound: Cc1ccc(COC(=O)N2CC[C@H](CNc3ncccn3)[C@H]([18F])C2)cc1 (racemic)
7.82

----------
# TARGET ENTITY: Glutamate receptor ionotropic, NMDA 2B (Rattus norvegicus, UniProt Q00960)
# ASSAY INFO: Binding affinity to NMDAR NR2B in Sprague-Dawley rat brain cortex
# Format: tissue-based
EXPERIMENTAL ENDPOINT: Kd (nM)
Please respond with the number in nM and leave the unit unwritten.

[
  {
    "COMPOUND": "Cc1ccc(COC(=O)N2CC[C@H](CNc3ncccn3)[C@H]([18F])C2)cc1 (racemic)",
    "EXPERIMENTAL ENDPOINT": "Kd",
    "UNIT DESCRIPTOR": "nM",
    "VALUE REPORTED": 9.8
  }
]

Here is the next item to consider.
For Cc1ccc(COC(=O)N2CC[C@@H](CNc3ncccn3)[C@H]([18F])C2)cc1 (racemic) , what is its reported Kd?
3.2

----------
# ASSAY INFO: Lipophilicity, log D of the compound in octanol-[…] at 10 uM after 40 mins by shake flask method
# Type: physicochemical
# logD at 40 min, 10 µM listing for each entry below
Reply: number alone, nothing else.

[
  {
    "COMPOUND": "Cc1ccc(COC(=O)N2CC[C@H](CNc3ncccn3)[C@H]([18F])C2)cc1 (racemic)",
    "logD at 40 min, 10 µM": 2.8
  }
]

We now examine a further compound.
Need logD at 40 min, 10 µM of Cc1ccc(COC(=O)N2CC[C@@H](CNc3ncccn3)[C@H]([18F])C2)cc1 (racemic) , thanks.
2.66
